Exercise: state measured self-cleavage for each of the variants provided.
B1: Osa-1-4 twister ribozyme (parent)
chain: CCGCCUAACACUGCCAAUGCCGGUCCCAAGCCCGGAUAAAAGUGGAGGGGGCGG

# Variants of: B1
# ASSAY TEXT: self-cleavage, relative activity (ratio to wild type); higher = more cleavage; co-transcriptional
Give bare numbers.

Here is how some variants turned out for self-cleavage.
[
  {
    "MACROMOLECULE SEQUENCE": "CCGCCUAACACUGCCAAUGCCGGUCCCUAGCCCGGAUAAAUGUGGAGGGGGCGG [A28U A41U]",
    "READOUT VALUE": 0.93
  },
  {
    "MACROMOLECULE SEQUENCE": "CCGCCUAACACUGCUAAUGCCGGUCCCAAGCCCGUAUAAAAGUGGAGGGGGCGG [C15U G35U]",
    "READOUT VALUE": 0.35
  }
]

Your task in this section: give self-cleavage for each listed record.
1. CCGCCUAACACUGCCAAUGCCUGUCCCAAGCCCGAAUAAAAGUGGAGGGGGCGG [G22U G35A]
2. CCGCCUAACACUGCCAAUGCCGGUCCCAAGCCCGGAUAAAAGUGUAGGCGGCGG [G45U G49C]
3. CCGCCUAACAUUGCCAAUGCCGGUCCCAAGCCCCGAUAAAAGUGGAGGGGGCGG [C11U G34C]
4. CCGCCUAACACUGCCGAUGCCGGUCCUAAGCCCGGAUAAAAGUGGAGGGGGCGG [A16G C27U]
5. CCGCCUAACACUGCCAAUGCCGGGCCCAAGCCCGGAUAAAAGUGGAGGGGCCGG [G51C U24G]
6. CCGCCUAACACUGCCAAUCCCGGUCCCAAGCCCGGAUAAAAGUGGAGGGGGUGG [C52U G19C]
7. CCGCCUAACACUGCUAAUGCCGGUCCCAAGCCUGGAUAAAAGUGGAGGGGGCGG [C15U C33U]
8. CCGCCUAAUACUGCCAAUGCAGGUCCCAAGCCCGGAUAAAAGUGGAGGGGGCGG [C21A C9U]

Ans:
1. 0.36
2. 0.02
3. 0.08
4. 0.37
5. 0.02
6. 0.18
7. 0.06
8. 0.1

Q: Item CCGCCUAACACUGCCAAUGCCGUUCCCAAGGCCGGAUAAAAGUGGAGGGGGCGG [C31G G23U] has what recorded self-cleavage?
Ans: 0.03
